biological target: recombinant soluble homotrimeric HA, A/Indonesia/5/05 H5N1 (Influenza A virus A/Indonesia/5/2005(H5N1)); experiment: microarray, transfection SN IgG, trimeric HA; conditions: remark: other sources report otherwise
Readout: Trimeric HA Binding: RLU (RLU)
The response must be a number in RLU with no trailing unit.

Binder: TCN-557 (5081_A04) (antibody, V domains shown) VH: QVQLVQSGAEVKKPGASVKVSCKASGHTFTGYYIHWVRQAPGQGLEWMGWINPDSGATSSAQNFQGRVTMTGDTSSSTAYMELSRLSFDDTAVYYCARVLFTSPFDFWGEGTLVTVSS VL: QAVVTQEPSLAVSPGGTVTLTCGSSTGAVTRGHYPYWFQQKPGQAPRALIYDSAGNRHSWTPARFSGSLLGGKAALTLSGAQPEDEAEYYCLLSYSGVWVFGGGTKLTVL
Unit spec: RLU
Readout number: 22200
--
Binder: TCN-550 (5096_F06) (antibody, V domains shown) VH: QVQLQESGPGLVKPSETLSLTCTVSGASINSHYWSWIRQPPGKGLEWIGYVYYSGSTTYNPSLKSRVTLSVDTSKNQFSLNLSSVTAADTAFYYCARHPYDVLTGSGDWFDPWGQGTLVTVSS VL: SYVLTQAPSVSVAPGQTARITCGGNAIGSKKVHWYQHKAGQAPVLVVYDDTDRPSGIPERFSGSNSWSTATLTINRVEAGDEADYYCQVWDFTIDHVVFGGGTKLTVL
Unit spec: RLU
Readout number: 9000

API: the following record is the query input.
The reported value for TCN-523 (5248_A17) (antibody, V domains shown) VH: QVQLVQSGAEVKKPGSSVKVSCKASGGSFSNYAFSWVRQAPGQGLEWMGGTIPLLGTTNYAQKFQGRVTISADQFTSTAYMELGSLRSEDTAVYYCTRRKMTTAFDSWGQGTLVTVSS VL: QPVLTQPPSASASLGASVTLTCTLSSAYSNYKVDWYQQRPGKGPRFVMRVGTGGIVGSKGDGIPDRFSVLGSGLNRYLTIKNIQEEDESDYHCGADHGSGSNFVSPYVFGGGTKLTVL in terms of Trimeric HA Binding: RLU is 55000
